Origin of measurements: patent US10053422B2

system: PC-3 prostate cancer cells; assay: SRB cell proliferation assay, PC-3; assay type: cell-based; conditions: PC-3, prostate cancer (Table 2); read-out: IC50 in suppressing proliferation
EXPERIMENTAL ENDPOINT: IC50 (µM)
Please give a number only; it is taken to be in µM.

IC50 reported for this compound C[C@](C#N)(COc1cc(C#N)ccc1C(F)(F)F)NC(=O)c1ccc(SC(F)(F)F)cc1 [MPL] : 21

* * *

tested on: LN-18 cells (glioma); test: SRB cell proliferation assay, LN-18; type: cell-based; conditions: Homo sapiens; LN-18, glioma (Table 2); read-out: IC50 in suppressing proliferation
EXPERIMENTAL ENDPOINT: IC50 (µM)
Please give a number only; it is taken to be in µM.

IC50 reported for this molecule C[C@](C#N)(COc1cc(C#N)ccc1C(F)(F)F)NC(=O)c1ccc(S(=O)(=O)C(F)(F)F)cc1 : 6.64
